- Tested on: CWR22R
- Measurement protocol: Cytotoxicity against human 22Rv1 cells expressing full length androgen receptor H875Y point mutant assessed as reduction in cell viability after 48 hrs by MTS assay
- Assay type: functional, cell-based
- Study conditions: 22Rv1, 48 h
Exam item: assign 1 to entries whose IC50 is below 1000 nM and 0 to entries at or above 1000 nM. Note that a value of exactly 1000 nM receives 0.

### Prompt Quick check: does "CN(C)CCCN1C(=O)c2ccc3c4c(c(NCCCCCCCNc5cc6c7c(ccc8c7c5C(=O)N(CCCN(C)C)C8=O)C(=O)N(CCCN(C)C)C6=O)cc(c24)C1=O)C(=O)N(CCCN(C)C)C3=O" have IC50 under 1000 nM?
### Response 0

### Prompt Quick check: does "CN(C)CCCn1c(=O)c2ccc3c(=O)n(CCCN(C)C)c(=O)c4c5[nH]c6ccccc6[nH]c5c(c1=O)c2c34.Cl.Cl" have IC50 under 1000 nM?
### Response 1

### Prompt Quick check: does "CN(C)CCN1C(=O)c2ccc3c4c(c(NCC(=O)Nc5ccc(O)c(CO)c5)cc(c24)C1=O)C(=O)N(CCN(C)C)C3=O" have IC50 under 1000 nM?
### Response 0

### Prompt Quick check: does "CN1CCN(c2cc3c4c(c(NCCO)cc5c4c2C(=O)N(CCO)C5=O)C(=O)N(CCO)C3=O)CC1" have IC50 under 1000 nM?
### Response 0

### Prompt Quick check: does "CN(C)CCN1C(=O)c2ccc3c4c(c(NCCc5ccc(O)c(CN(C)C)c5)cc(c24)C1=O)C(=O)N(CCN(C)C)C3=O" have IC50 under 1000 nM?
### Response 1

### Prompt Quick check: does "CN(C)CCCN1C(=O)c2ccc3c4c(c5[nH]c(=O)c(=O)[nH]c5c(c24)C1=O)C(=O)N(CCCN(C)C)C3=O" have IC50 under 1000 nM?
### Response 0

### Prompt Quick check: does "CN(C)CCCNc1cc2c3c(ccc4c3c1C(=O)N(CCCN(C)C)C4=O)C(=O)N(CCCN(C)C)C2=O" have IC50 under 1000 nM?
### Response 0

### Prompt Quick check: does "CN(C)CCCN1C(=O)c2ccc3c4c(c(NCCCCNc5cc6c7c(ccc8c7c5C(=O)N(CCCN(C)C)C8=O)C(=O)N(CCCN(C)C)C6=O)cc(c24)C1=O)C(=O)N(CCCN(C)C)C3=O" have IC50 under 1000 nM?
### Response 0
